Cell Binding to Human PanT Signal/Background (of CD4 negative population) reference
- Target or test system: T1, human CD8 on human pan T cells (CD4-negative population) (human, UniProt P01732 22-235; P10966 22-210)
- T1 construct: whole, on cells; Endogenous CD8 on primary human pan T cells, read in the CD4-negative gate; also called CD8α/β
- T1 sequence (P01732 22-235, chain 1 of 2): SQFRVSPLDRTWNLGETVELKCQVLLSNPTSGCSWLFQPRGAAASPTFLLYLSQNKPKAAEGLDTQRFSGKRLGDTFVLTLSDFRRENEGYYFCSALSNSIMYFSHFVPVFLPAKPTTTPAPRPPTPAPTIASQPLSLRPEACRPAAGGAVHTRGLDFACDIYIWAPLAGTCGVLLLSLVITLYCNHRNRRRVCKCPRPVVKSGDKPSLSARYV
- T1 sequence (P10966 22-210, chain 2 of 2): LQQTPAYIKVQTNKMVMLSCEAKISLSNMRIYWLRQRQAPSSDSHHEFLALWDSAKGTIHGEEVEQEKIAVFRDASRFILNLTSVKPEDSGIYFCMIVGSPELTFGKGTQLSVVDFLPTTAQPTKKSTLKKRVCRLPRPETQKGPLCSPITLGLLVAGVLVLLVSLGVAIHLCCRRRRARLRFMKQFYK
- Measurement notes: flow cytometry, 20 nM antibody on human pan T cells, A647 anti-human IgG Fc; geomean ratio in CD4-negative population
Form: value (number only, do not type unit).

Examples from the recorded data:
# Binder, Data value
records = [
    ("CD8B361 (antibody, human IgG1, kappa, V domains shown, Full-length human IgG1, kappa; V regions recovered from mouse hybridoma; also called CD8B36I) VH: EVQLQQSGPELVKPGNSVKMSCKASGYTFTDYYMDWVKQSHGTSLEWIGYIYPNNGDTRYNQKFKDKATLTVDKSSSTAYMELHSLTSEDSAVFYCARSIYYDHGGGFPYWGQGTLVTVSA VL: DIVMTQSQKFMSTSVGDRVSVTCKASQNVGTYVAWYQQKPGQSPKALIYSASYRYSGVPDRFTGSGSGTDFTLTINNVQSEDLAEYLCQQYNSYPTFGGGTRLEIKR", 1050),
    ("CD8B182 (antibody, human IgG1, kappa, V domains shown, Full-length human IgG1, kappa; V regions recovered from mouse hybridoma) VH: EVQLQQSGAALAKPGTSVKMSCKASGYTFTSYWMNWVRQRPGQGLEWIGAVNPTNYYTEYIQKFKDKAILTADKSSSTAYMHLSGLTSEDSAVYYCARSGLYNTNHLAWFAYWGQGTTVTVSS VL: DIKMTQSPASLSASVGETVTITCRASENIHNYLAWYQQIQGKSPQLLVYNAKTLANGVPSRFSGSASGTQFSLTINSLQPEDFGSYYCQHFWTTPLTFGAGTKLELKR", 1490),
    ("CD8B268 (antibody, human IgG1, kappa, V domains shown, Full-length human IgG1, kappa; V regions recovered from mouse hybridoma) VH: QVQLQQSGAELVKPGASVKLSCKASGYTFTVYTIHWVKQRSGQGLEWIGWFYPGSGNIKYNEKFKDKATLTADKSSHTVYMELSRLTSEDSAVYFCARHEDNHYYDGNSWFAYWGQGTLVTVSA VL: DIQMTQSPASLSASVGQTVTITCRASGNIHNYLAWFQQKQGKSPQLLVYNAKTLADGVPSRFSGSGSGTQYSLKINSLQTEDFGNYYCQHFWNTPYTFGGGTKLEIKR", 1170),
]

Looking up CD8B310 (antibody, human IgG1, kappa, V domains shown, Full-length human IgG1, kappa; V regions recovered from mouse hybridoma) VH: QVQLKESGPGLVAPSQSLSITCTVSGFSLTNYAVHWVRQSPGKGLEWLGVIWTDGSTDYNAGFISRLSISKDNSKSQVFFKMNSLQADDTAIYYCARNNGYFPAFFAYWGQGTTVTVSS VL: DVLMTQTPLSLPVSLGDQASISCRSSQTIVHSNGNTYLEWYLQKPGQSPKLLMYKVSNRFSGVPDRFGGSGSGTDFTLKISRVEAEDLGVYYCFQGSHAPFTFGSGTKLEIKR , I found its Cell Binding to Human PanT Signal/Background (of CD4 negative population) recorded as 29

Looking up CD8B312 (antibody, human IgG1, kappa, V domains shown, Full-length human IgG1, kappa; V regions recovered from mouse hybridoma) VH: QVQLQQPGADLVKPGASVKLSCKASGYTFTSFWMHWVKQRPGQGLEWIGNVDPSDSQTHYNQKFKDKATLTVDKSSNTAYMQLSSLTSEDSAVYYCARSTYYRYDGPFTYWGQGTTVTVSS VL: DIVLTQSPATLSVTPGDSVSLSCRASQSINNNLHWYQQKSHESPRLLIKYTSQSISGIPSRFSGSGSGPDFTLSINSVETEDFGMYFCQQSNSWPLTFGGGTKLEIKR , I found its Cell Binding to Human PanT Signal/Background (of CD4 negative population) recorded as 1090
